Data provenance is the supplement of paper PMC9112550.

Tested on: Escherichia coli TOP10;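 note: peptides expressed intracellularly from a pBAD plasmid library in pooled LB shake-flask culture, induced with 0.3% L-arabinose, DNA abundance read by NGS, three biological replicates, DESeq2 with apeglm shrinkage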
test: shrunken log2 fold change of peptide-encoding DNA abundance (4.5 h post-induction vs induction); higher = less antimicrobial activity (less host growth inhibition)
test context: time post-induction: 4.5 h; library: site-saturation at positions 5, 18, 19, 20
As shown below, each of these sequences has a reported shrunken log2 fold change value.

Solved entries:
{"columns": ["record sequence", "shrunken log2 fold change"],
 "data": [
  ["RRIRIRPPRLPRPRPRPPIHPRP", -0.614],
  ["RRIRYRPPRLPRPRPRPDGDPRP", 0.00902],
  ["RRIRSRPPRLPRPRPRPEWWPRP", 0.0594]
]}

Prompt: Look up and report measured shrunken log2 fold change for this entry: RRIRNRPPRLPRPRPRPGQQPRP
Response: -0.0199
